# Tested system: recombinant human Meningioma Expressed Antigen 5 (MGEA5), also referred to as O-GlcNAcase (OGA) (Homo sapiens, UniProt O60502)
# Construct: Full length OGA enzyme was purchased at OriGene (cat # TP322411); purchased OriGene TP322411
# Sequence (O60502 whole entry): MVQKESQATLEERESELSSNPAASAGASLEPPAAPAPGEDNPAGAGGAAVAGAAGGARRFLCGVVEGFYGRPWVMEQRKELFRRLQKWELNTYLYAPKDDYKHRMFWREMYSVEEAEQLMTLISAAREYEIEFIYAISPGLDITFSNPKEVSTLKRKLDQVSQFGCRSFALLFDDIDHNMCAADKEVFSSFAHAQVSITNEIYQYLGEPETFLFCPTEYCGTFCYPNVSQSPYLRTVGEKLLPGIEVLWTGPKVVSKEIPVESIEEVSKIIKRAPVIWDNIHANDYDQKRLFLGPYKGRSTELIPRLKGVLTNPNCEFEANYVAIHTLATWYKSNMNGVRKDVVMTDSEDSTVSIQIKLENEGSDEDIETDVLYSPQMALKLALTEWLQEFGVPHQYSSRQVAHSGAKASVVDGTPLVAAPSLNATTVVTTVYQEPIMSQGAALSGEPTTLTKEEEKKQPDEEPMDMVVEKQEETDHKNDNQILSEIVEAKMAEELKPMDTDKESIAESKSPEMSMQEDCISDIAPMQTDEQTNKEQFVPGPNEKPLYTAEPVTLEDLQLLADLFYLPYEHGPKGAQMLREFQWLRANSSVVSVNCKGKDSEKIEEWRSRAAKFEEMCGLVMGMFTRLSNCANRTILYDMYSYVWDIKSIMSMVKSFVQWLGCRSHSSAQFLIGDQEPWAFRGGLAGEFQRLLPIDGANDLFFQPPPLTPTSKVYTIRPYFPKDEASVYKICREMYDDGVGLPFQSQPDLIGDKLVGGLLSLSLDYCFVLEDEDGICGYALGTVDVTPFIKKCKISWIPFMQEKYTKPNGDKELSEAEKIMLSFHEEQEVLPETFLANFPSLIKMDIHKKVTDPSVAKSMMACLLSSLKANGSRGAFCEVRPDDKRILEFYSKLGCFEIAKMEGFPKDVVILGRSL
# Method: OGA biochemical assay: inhibition of FM-GlcNAc hydrolysis, fluorescence; protocol A (10 nM OGA, 1 h) or protocol B (2 nM OGA, 6 h)
# Cond: Enzymatic protocol B (2 nM OGA, 6 h)
Quantity measured: Enzymatic Emax (%)

- Molecule: "CC(=O)Nc1ncc(CN2CCC(Cc3cnc(C)c(C)n3)C2)s1 (stereo not drawn)"
  Quantity measured: "Enzymatic Emax (%)"
  Number: 101.3
- Molecule: "Cc1cc(C[C@H]2CCN(Cc3ccc4scnc4c3)C2)cc(C)n1"
  Quantity measured: "Enzymatic Emax (%)"
  Number: 87.8
- Molecule: "CC(=O)Nc1ncc(CN2CCC(Cc3cnc(C(F)(F)F)cn3)C2)s1 (stereo not drawn)"
  Quantity measured: "Enzymatic Emax (%)"
  Number: 102.9
- Molecule: "CC(=O)Nc1ncc(CN2CCC(Cc3cc(C)nc(C)n3)C2)s1 (stereo not drawn)"
  Quantity measured: "Enzymatic Emax (%)"
  Number: 101.8

(A) CC(=O)Nc1ncc(CN2CCC(Cc3ccc(C)nn3)C2)s1 (stereo not drawn)
(B) Cc1cc(C[C@H]2CCN(Cc3ccc4c(c3)OCO4)C2)cc(C)n1
In terms of reported Enzymatic Emax (%), does A or B have the smaller number? Bench note: the answer is the label of the chosen record. B
